# procedure.details: oral bioavailability in rats (AUC versus intravenous)
# condition.label: rat, in vivo, po, 60 mg/kg, rats, 60 mg/kg oral, Cremaphor
endpoint: AUC (ng·h/mL)
Record the value in ng·h/mL, omitting the unit from your answer.

# input Report AUC for Nc1ccc2c(c1)[n+]([O-])c1ccccc1[n+]2[O-] [2-aminophenazine-5,10-dioxide] please.
# output 103

----------
# procedure.details: oral bioavailability in rats (AUC versus intravenous)
# condition.label: rat, in vivo, po, 100 mg/kg, rats, 100 mg/kg oral, Encapsin CD
endpoint: AUC (ng·h/mL)
Express it in ng·h/mL; write the number only.

# input Would you kindly share the measured AUC for Nc1ccc2c(c1)[n+]([O-])c1ccccc1[n+]2[O-] [2-aminophenazine-5,10-dioxide] ?
# output 3520
